# Test: in vitro
# Type: cell-based, human
# Applied Conditions: human
Metric Name: IC50 at 24 h (µM)
Dear colleague, please return just the value in µM, with no unit written.

Query: Query (compound): C=C(C)C1CCC2(C=NO)CCC3(C)C(CCC4C5(C)CCC(O)C(C)(C)C5CCC43C)C12 (centres unmarked) ; field requested: IC50 at 24 h
Response: 25

Query: What does the record list as IC50 at 24 h for C=C(C)[C@@H]1CC[C@]2(C=O)CC[C@]3(C)C(CCC4[C@@]5(C)CC[C@H](O)C(C)(C)C5CC[C@]43C)C12 (some centres unmarked) ?
Response: 47
